The following compounds are shown together with reported growth values.
- System: CCRF-CEM leukemia
- test_protocol: NCI-60 one-dose screen, 48 h (100 = growth as untreated, 0 = no growth, -100 = all killed)
- test_context: 10 µM unless noted
About 83,000 compounds went through this panel and 20% of them were active in at least one assay; those are over-represented in the sample as a whole. The source made the active and inactive calls. Rule for the calls: active = growth percent below 10; inactive = the rest.

Worked cases, answers included:
1) O=C1C(=O)N(CCCCn2cc(CO)nn2)c2ccccc21; 104% (inactive)
2) O=c1ccc2cc3ccccc3cc2[nH]1; -72.7% (active)
3) COc1cc(-c2c3c(nc4c2c(C)nn4-c2ccccc2)-c2ccccc2C(=O)C3=O)cc(OC)c1OC; 54.4% (inactive)
4) O=C(O)c1c([N+](=O)[O-])cnc2ccccc12; 127% (inactive)

Task: # get_value(readout='growth', item= OCC1C2C=CC(C2)C1CO (stereo unspecified) )
Result: 126% (inactive)

Task: Now this one: CCN(CC)CCC(=O)c1ccc(OC)c2ccccc12
Result: 18.7% (inactive)

Task: Queued: OCCNCCNc1c2ccccc2nc2ccccc12
Result: 65.4% (inactive)
